B1: mRNA-splicing (parent)
chain: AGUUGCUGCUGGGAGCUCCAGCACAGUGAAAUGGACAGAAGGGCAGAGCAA

variants of: B1; experiment: exon inclusion enrichment index; higher = more inclusion; WT1 exon 5 minigene, HEK293
Let's look at some variants and their measured exon inclusion enrichment index.
Returns: the value as a bare number; no unit string appended.

Please review the entries below; each comes with its answer.
[
  {
    "mutation-label": "G5A C6U U7A G8U C9A C44G A45U",
    "exon inclusion enrichment index": 0.0272
  },
  {
    "mutation-label": "G5C C6G U7C U10C G33U G34C",
    "exon inclusion enrichment index": 1.15
  },
  {
    "mutation-label": "G5U G8U C9U G33C G34C",
    "exon inclusion enrichment index": 0.0648
  }
]

Report exon inclusion enrichment index for C22G A23G please.
1.07

Same question for U27A G28U please.
0.0261

Same question for U3A G5C C6A U7C G8A U10A please.
0.475

Same question for G34A A35U please.
0.0211

Same question for G41A G42C please.
0.419

Same question for C6A G8A C9A U10A please.
0.0495

Same question for G5A C6G U7G C9A A39U A40G please.
0.00317

Same question for G2C U3C G5A C6G U7G C9A please.
0.0355

Same question for G5A U7C G8A U10C G38U A39G please.
1.15

Same question for G5A U7C G8A U10C G28U A29G please.
2.07

Same question for C6A U7C C9A U10C G13A please.
3.32

Same question for G5A U7C G8A U10C G28U A29U please.
0.443

Same question for G5A C6U U7A G8U C9A G43C C44U please.
0.033

Same question for G5A U7C G8A U10C A39C A40U please.
1.28

Same question for U4G G5C G8U C9U please.
0.642

Same question for G5C C6G U7C U10C U17C C18U please.
3.54

Same question for C9A U10A please.
0.914

Same question for G5A C6U U7A G8U C9A G43A C44G please.
0.476

Same question for G34U A35C please.
0.0394

Same question for C6A U7A C9A U10A G21U please.
0.507

Same question for C6G U7A G8U C9A please.
0.349

Same question for G5A C6U U7A G8U C9A A29U A30G please.
0.0618

Same question for G5A C6G U7G C9A G11U G12A please.
0.00148

FYI, the data here is from the RNAGym collection of RNA variant scans (doi:10.1101/gr.219683.116).
